System: HCT-116 colon
Procedure text: NCI-60 one-dose screen, 48 h
Test settings: 10 µM unless noted
Procedure: Growth inhibition of the HCT-116 human tumor cell line is measured as a screen for anti-cancer activity. Cells are grown in 96 well plates and exposed to the test compound for 48 hours. Compounds are tested at a single concentration, which is 10^-5 M for most compounds. The reported endpoint is percent growth (GI% or GIPRCNT), where numbers from 0 - 100% represent growth inhibition, and numbers from -100% - 0 represent cell death. For example, a value of 40 represents 60% growth inhibition. […]
The panel holds about 83,000 compounds, 20% with a hit somewhere; the sample as a whole holds those more often. Activity calls are given as the source filed them. How the source made its calls: active means growth percent below 10; inactive means the rest.
Returns: one label drawn from label 1 = active, label 0 = inactive

These recorded examples may help you get a feel for the data.
| Molecule | Label |
| --- | --- |
| CN(C)C1CN(C(=O)c2cc(-c3ccc4ncnc(N5CCc6cc(F)c(Cl)cc65)c4c3)cnc2N)C1 | label 0 |
| O=C1/C(=C/c2cccc(Br)c2)COc2ccc(O)cc21 | label 1 |
| O=S(=O)(Nc1cc(Sc2nc3ccccc3s2)c(O)c2ccccc12)c1ccc2ccccc2c1 | label 0 |
| CC(C)Cc1nc(Nc2ccccc2)[nH]c(=O)c1C#N | label 0 |
| COc1cc2c(c(OC)c1OC)CCC(c1cccc(C(=O)Nc3ccc(Br)cc3)c1)O2 (stereo not drawn) | label 0 |

Now consider the entry below.
Per the records of this test, what outcome belongs to COC(=O)[C@@]1(C)CC[C@]2(C)CC[C@]3(C)C4=CC=C5C(=CC(=O)C(O)=C5C)[C@]4(C)[C@@H](O)C[C@@]3(C)[C@@H]2C1 ?
label 1
